Attribute: hP2X23/hP2X3* Selectivity (1321N1)
- Target: human P2X2/3 receptors (Homo sapiens, UniProt P56373+Q9UBL9)
- Construct: expressed in transfected cells; host or cells: human astrocytoma 1321N1 (1312N1 [sic])
- Protocol details: Intracellular calcium measurement, antagonist activity at human P2X2/3 receptors (hP2X23 1321N1), Fluo8
- Type: cell-based
- Setup conditions: ratio of column 4) hP2X2/3 to column 3) hP2X3, 1321N1

| Molecule | hP2X23/hP2X3* Selectivity (1321N1) |
| --- | --- |
| CCc1cc2n(CC(=O)Nc3ccc(F)cn3)c3c(c(=O)n2n1)CN(CCCOC)C3=O | >114 |

Name the recorded hP2X23/hP2X3* Selectivity (1321N1) for CCc1cc2n(CC(=O)Nc3ccc(F)cn3)c3c(c(=O)n2n1)CN(C1CCN(C)C1)C3=O (stereo not drawn) .
>40

Bench note: what hP2X23/hP2X3* Selectivity (1321N1) did COCC(C)N1Cc2c(n(CC(=O)Nc3ccc(F)cn3)c3cc(Br)nn3c2=O)C1=O (stereo not drawn) show?
>368

* * *

- Target: human P2X3 receptor (Homo sapiens)
- Sequence (P56373 1-397): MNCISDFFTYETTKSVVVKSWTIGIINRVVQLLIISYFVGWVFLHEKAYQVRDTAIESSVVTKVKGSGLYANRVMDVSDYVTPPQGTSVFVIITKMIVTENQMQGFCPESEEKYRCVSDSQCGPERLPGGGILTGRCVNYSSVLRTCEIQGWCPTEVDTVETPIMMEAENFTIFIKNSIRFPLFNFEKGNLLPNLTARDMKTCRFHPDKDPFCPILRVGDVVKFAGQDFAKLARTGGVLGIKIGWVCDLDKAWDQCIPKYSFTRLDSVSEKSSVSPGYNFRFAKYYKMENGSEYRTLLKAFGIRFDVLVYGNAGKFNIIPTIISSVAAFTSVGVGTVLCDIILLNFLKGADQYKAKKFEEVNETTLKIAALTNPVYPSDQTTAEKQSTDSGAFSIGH
- Protocol details: Intracellular calcium measurement to assess antagonist activity at human P2X3 receptors (hP2X3 CHO), photina luminescence
- Format: cell-based
- Design: expressed in transfected cells; host or cells: Chinese hamster ovary (CHO) cells
- Setup conditions: column 2), CHO cells, agonist α,β-methylene-ATP at EC50
Measurement type: IC50 (nM)
Numbers only; they are read as nM.

Worked cases, IC50 given:
| Compound | Target | Unit of measurement | IC50 |
| --- | --- | --- | --- |
| CCc1cc2n(CC(=O)Nc3ccc(C)cn3)c3c(c(=O)n2n1)CN(CC1CCOC1)C3=O (centres unmarked) | human P2X3 receptor (Homo sapiens) | nM | 695 |
| CC(C)N1Cc2c(n(CC(=O)Nc3ccc(F)cn3)c3cc(C(=O)Nc4cccnn4)nn3c2=O)C1=O | human P2X3 receptor (Homo sapiens) | nM | 22 |
| COC[C@H](C)N1Cc2c(n(CC(=O)Nc3ccc(F)cn3)c3cc(-c4ncccc4C)nn3c2=O)C1=O | human P2X3 receptor (Homo sapiens) | nM | 20 |
| CCc1cc2n(CC(=O)Nc3ccc(F)cn3)c3c(c(=O)n2n1)CN(CC1CN(C(=O)OC(C)(C)C)C1)C3=O | human P2X3 receptor (Homo sapiens) | nM | 205 |
| CCc1cc2n(CC(=O)Nc3ccc(F)cn3)c3c(c(=O)n2n1)CN(C(COC)COC)C3=O | human P2X3 receptor (Homo sapiens) | nM | 21 |
| CCOC(=O)c1cc2n(CC(=O)Nc3ccc(F)cn3)c3c(c(=O)n2n1)CN(C(C)C)C3=O | human P2X3 receptor (Homo sapiens) | nM | 16 |
| CC(C)(C)c1cc2n(CC(=O)Nc3ccc(F)cn3)c3c(c(=O)n2n1)CN(CC(=O)N1CCCC1)C3=O | human P2X3 receptor (Homo sapiens) | nM | 175 |

Data request, read-out IC50, for CCc1cc2n(CC(=O)Nc3ccc(F)cn3)c3c(c(=O)n2n1)CN(C[C@@H]1CCCO1)C3=O
210

Entry source: patent US11319324B2
